# Tested on: RPMI-7951 melanoma cells
# Method description: Cell growth assay, RPMI-7951
# Type: cell-based
# Condition label: RPMI-7951, 72 hr, medium changed every 24 hr; read-out: ED50, cell growth inhibition
Experimental readout: EC50

The recorded EC50 for entry RRWWCR [Ac-RRWWCR-NH2] equals 31 µM

----------
# Study target: MGSA/GROα receptors on RPMI-7951 melanoma cells
# Method description: inhibition of 1 nM 125I-MGSA/GROα binding to RPMI-7951 cells
Experimental readout: pEC50
In simple prose, pEC50 is minus the logarithm base ten of a concentration in moles per litre.

Short answer for Ac-RRWWCR-NH2 (peptide) : pEC50 was 6.00

----------
# Tested on: IL-8 receptors on neutrophils
# Method description: Inhibition of 125I-labeled IL-8 binding to human neutrophils
# Condition label: 1 nM IL-8, FIG. 10, peptide premixed with ligand 15 min; read-out: EC50, inhibition of binding of IL-8 to neutrophils
pEC50: −log10 of the molar value.
Experimental readout: pEC50

The substance RRWWCR [Ac-RRWWCR-NH2] on IL-8 receptors on neutrophils: pEC50 was ~4.60

----------
# Study target: IL-8 receptors on human neutrophils (human)
# Method description: inhibition of binding of 1 nM IL-8 to human neutrophils, 90 min on ice (FIG. 10)
Experimental readout: pEC50
pEC50 here: minus log base 10 of the concentration, concentration in moles per litre.

The recorded pEC50 with IL-8 receptors on human neutrophils (human) for Ac-RRWWCR-NH2 (peptide) was 4.60

----------
# Test system: MGSA/GROα receptors on Hs 294T melanoma cells
# Method description: Binding of 125I-MGSA/GROα to Hs 294T melanoma cells
# Set-up: species or system human
# Condition label: 1 nM 125I-labeled MGSA/GROα, read-out: EC50, inhibition of MGSA/GROα binding
Experimental readout: EC50

Item: RRWWCR [Ac-RRWWCR-NH2] | EC50: ~1000 nM

----------
# Test system: IL-8 receptors on neutrophils
# Method description: Inhibition of 125I-labeled IL-8 binding to human neutrophils
# Condition label: 100 μM peptide, 10^−12 M IL-8; hexamer RRWWCX series, first screen
Where no end group is shown, it is not given here.
Doc: threshold 80% (exclusive). Items with % INHIB. (IL-8 binding to neutrophils) beneath it return criterion met; others return criterion not met.

Worked cases, answers included:
> print(dat)
   substance                   study.target        label.class
1     RRWWCW  IL-8 receptors on neutrophils      criterion met
2     RRWWCT  IL-8 receptors on neutrophils  criterion not met
3     RRWWCM  IL-8 receptors on neutrophils      criterion met

Please examine the following record next.
Bench note: check whether Arg Arg Trp Trp Cys Asp (Ac-RRWWCD; also: D-amino acids, positions not given here) shows % INHIB. (IL-8 binding to neutrophils) below 80% criterion met

----------
# Study target: IL-8 receptors on human neutrophils (human)
# Method description: inhibition of 1 nM 125I-IL-8 binding to human neutrophils, 90 min 4 °C, average of replicates
Experimental readout: EC50 (µM)
Entry rule: numbers only, all in µM.

Value of measured EC50 for the entry Ac-RRWWCR-NH2 (peptide) : 13.7

----------
% INHIB. reference
# Study target: IL-8 receptors on human neutrophils (human)
# Method description: inhibition of 125I-IL-8 (10^-12 M) binding to human neutrophils, peptide 100 µM
Your answer is read as %, so omit the unit and give the number.

> print(dat)
                 substance  experimental.readout  readout.value
1         RRWWCY (peptide)              % INHIB.           77.9
2  Ac-RRWWCR-NH2 (peptide)              % INHIB.            112
3         RRWWCP (peptide)              % INHIB.           88.3
4         RRWWCD (peptide)              % INHIB.           11.8
5         RRWWCA (peptide)              % INHIB.           51.9

Tested system IL-8 receptors on human neutrophils (human); % INHIB. recorded for RRWWCI (peptide) was 45.8

Item: RRWWCW (peptide) | System: IL-8 receptors on human neutrophils (human) | % INHIB.: 66.4

Bench note, IL-8 receptors on human neutrophils (human): entry RRWWCN (peptide) , its % INHIB. = -12

----------
# Study target: IL-8 receptors on human neutrophils (human)
# Method description: inhibition of 125I-IL-8 binding to human neutrophils, assuming purely competitive single site model
Experimental readout: Ki

Per the records, this substance ( Ac-RRWWCR-NH2 (peptide) ) has Ki equal to 10 µM

----------
# Test system: IL-8 receptors on neutrophils
# Method description: Inhibition of 125I-labeled IL-8 binding to human neutrophils
# Condition label: specific binding of 125I-labeled IL-8; read-out: apparent K1 (estimated, purely competitive single site model)
Experimental readout: Ki

Ki recorded for this substance, RRWWCR [Ac-RRWWCR-NH2] , is ~10 µM

----------
# Study target: MGSA/GROα receptors on Hs 294T melanoma cells
# Method description: inhibition of 1 nM 125I-MGSA/GROα binding to Hs 294T cells
Experimental readout: EC50
Include the unit right after the number.

Field EC50 (system: MGSA/GROα receptors on Hs 294T melanoma cells) for entry Ac-RRWWCR-NH2 (peptide) = 1000 nM

----------
# Test system: IL-8 receptors on neutrophils
# Method description: Inhibition of 125I-labeled IL-8 binding to human neutrophils
# Condition label: 100 μM peptide, 10^−12 M IL-8; hexamer RRWWCX series, first screen
Where no end group is shown, it is not given here.
Catalogue of substances with associated % INHIB. (IL-8 binding to neutrophils)
Give a bare numeral; the unit % is implied.

Completed entries (count: 5):
> print(dat)
   substance                   study.target                    experimental.readout  unit.info  readout.value
1     RRWWCN  IL-8 receptors on neutrophils  % INHIB. (IL-8 binding to neutrophils)          %          −12.0
2     RRWWCH  IL-8 receptors on neutrophils  % INHIB. (IL-8 binding to neutrophils)          %           87.9
3     RRWWCV  IL-8 receptors on neutrophils  % INHIB. (IL-8 binding to neutrophils)          %           81.1
4     RRWWCI  IL-8 receptors on neutrophils  % INHIB. (IL-8 binding to neutrophils)          %           45.8
5     RRWWCA  IL-8 receptors on neutrophils  % INHIB. (IL-8 binding to neutrophils)          %           51.9

Case RRWWCS , IL-8 receptors on neutrophils, % INHIB. (IL-8 binding to neutrophils) recorded as 79.3

Form field, % INHIB. (IL-8 binding to neutrophils) with IL-8 receptors on neutrophils, item RRWWCK : 110.3

----------
# reported % INHIB. (IL-8 binding to neutrophils); entries follow
# Tested on: IL-8 receptors on neutrophils
# Method description: Inhibition of 125I-labeled IL-8 binding to human neutrophils
# Condition label: 100 μM peptide, 10^−12 M IL-8; hexamer RRWWCX series, first screen
Where no end group is shown, it is not given here.
Express your answer in %, writing the number without its unit.

Example results:
> print(dat)
                                  substance                    experimental.readout  readout.value
1                                    RRWWCE  % INHIB. (IL-8 binding to neutrophils)           17.1
2                    RRWWCR [Ac-RRWWCR-NH2]  % INHIB. (IL-8 binding to neutrophils)          112.2
3                                    RRWWCF  % INHIB. (IL-8 binding to neutrophils)           80.2
4  RRWWCC (cysteine pairing not given here)  % INHIB. (IL-8 binding to neutrophils)           75.1

Value of % INHIB. (IL-8 binding to neutrophils) reported for the substance RRWWCY is 77.9

----------
# Study target: IL-8 receptors on human neutrophils (human)
# Method description: inhibition of 125I-IL-8 (10^-12 M) binding to human neutrophils, peptide 100 µM
Quick rule for you: % INHIB. at 80% or higher means Yes, lower means No.

> print(dat)
          substance                              study.target  label.class
1  RRWWCM (peptide)  IL-8 receptors on human neutrophils (human)           No
2  RRWWCH (peptide)  IL-8 receptors on human neutrophils (human)          Yes

Could you please find out whether RRWWCL (peptide) has % INHIB. that meets 80% or exceeds it? Yes

Does the substance RRWWCC (peptide) have recorded % INHIB. that is 80% or more? No

Identify whether the reported % INHIB. of the following substance is 80% or greater: RRWWCT (peptide) Yes

Entry RRWWCE (peptide) : is its % INHIB. no less than 80%? No
